molecular target: pooled human IgG (human); test: cell-based or functional assay; note: test concentration or dose not given here
For each of the binders below, state its Enzyme Activity Endpoint Assay (purified): Fab′2.
Please answer using a numeric value trailed by its unit.

Challenge: I'd like to know its Enzyme Activity Endpoint Assay (purified): Fab′2. The binder in question is PRT-219 (enzyme) MEVVEVWPYGQNPNGKTEILSQTEDSESLQRLRDIEDFQAEKKKQNVVYTKWLDGVTVDDSDFRKIKDGNTEYYATPLLNGRGFYDINKDFNRDSDKCAAAVAANMFHYWLDRNRDNVDRFLKQNPEKHGIIELPDGQLKLSDFLNTYESDNNYRDKSKLFDFISKNFNGPVWTNKLLDNYINGYGYNYKYGRTIEDPTKNTSKINFFKKVFNEKILTNVHQIFNYNEFSTLLSEALYTGKAIGLSYGPGGLRHSLGHIISVWGADLDADGNVVAIYVTDSDDKKLTIGDERVGLKRYKISTDDEGRARLTAYTETDNTGGQVRGIWTLDTGKQAWADYFDKTEQTGTDQAEQLEHHHHHH
Response given: 104 ng/µL

Challenge: State the recorded Enzyme Activity Endpoint Assay (purified): Fab′2 for this entry: PRT-211 (enzyme) MEVVEVWPYGQNPNGKTEILSQTEDSESLQRLRDIEDFQAEKKKQGVVYTKWLDGVDVDDHDFRKIVDGNIAYYATPLLNGKGFYDINKDFNRDSDKCAAAVAANMFHYWLDQNRDNVDRFLRQNPEKHGIIELPDGQLKLSDFLNTYESDNGYRDKSKLFDFISNNFNGPVWTDKLLDNYINGYAYNYKYGRTIEDPTKNTSKINFFKDVFNEKILTNIHSIRNYNTFSNLLSEALYTGKAIGLSYGPAGLRHSLGHIISVWGADLDEDGNVVAIYVTDSDDKKLTIGDERVGLKRYKISTDDEGRARLTAYEENDNTGGEIRGLWTLDTGKQAWADYFDKTEQTGTDQAEQLEHHHHHH
Response given: 0 ng/µL

Challenge: Look at this binder and give its reported Enzyme Activity Endpoint Assay (purified): Fab′2. PRT-210 (enzyme) MEVVEVWPYGQNPNGKTEILSQTEDSESLQRLRDIEDFQAEKKKQNVVYTKWLDGVTVDDHDFRKITDGNTAYYATPLLNGRGFYDINKDFNRDSDKCAAAVAANMFHYWLDQNRDNVDRFLKQNPEKHGIIELPDGQLKLSDFLNTYESDDGYRDKSKLFDFISNNFNGPVWTDKLLDNYINGYAYNYKYGRTIEDPTKNTSKINFFKEVFNEKLLTNNHSIRNQNEFSDLLSEALYTGKAIGLSYGPAGLRHSLGHIISVWGADFDADGNVVAIYVTDSDDKKLTIGDERVGLKRYKISSDDEGRARLTAYTEKHNTGGQIRGLYTLDTGKQEWADYFDKTEQTGTDQAEQLEHHHHHH
Response given: 0 ng/µL

Challenge: What value of Enzyme Activity Endpoint Assay (purified): Fab′2 has been reported for the following binder? PRT-218 (enzyme) MEVVEVWPYGQNPNGKTEILSQTEDSESLQRLRDIEDFQAEKKKQGVVYTKWLDGVNVDDHEFRKITDGNTEYYATPLLNGRGYYDINKDFNRDSDKCAAAVAANMFHYWLDRNRDNVDRFLRQNPDKHGIIELPDGQLKLSDFLNTYESDHDYRDKSKLFDFISNNFNGPVWTNKLLDNYINGYGYNYKYGRTIEDPTKNTSKINFFKEVFNGKLLTDNHSIRNKNEFSSKLSEALYTGKAIGLSYGPAGLRHSLGHIISVWGADLDEDGNVVAIYVTDSDDKKLTIGDERVGLKRYKVSYDDEGRARLTAYEETDNTGGEIRGLYTLDTGKQYWADYFDKTEQTGTDQAEQLEHHHHHH
Response given: 0 ng/µL
